system: SF-539 CNS; assay: NCI-60 one-dose screen, 48 h (100 = growth as untreated, 0 = no growth, -100 = all killed); conditions: 10 µM unless noted
Compounds without any hit were thinned out: in the full panel of roughly 83,000, 20% have a hit.
assayMetric: growth (%)
Give bare numbers, in %.

Examples with their reported growth follow.
CCOC(=O)c1sc2nc(-c3cc4ccccc4o3)cc(-c3ccc(Cl)cc3)c2c1N = 120
O=C(Nc1cccc(Cl)c1)Nc1cc(C(F)(F)F)ccc1Cl = 43.5
Cc1ccc(CSCc2ccc(C(=O)NC3CC3)o2)cc1 = 79.8
CN1CCN(Cc2ccc(NC(=O)c3cccc(C#Cc4cnc(N)c5ncccc45)c3F)cc2C(F)(F)F)CC1 = -29
COc1ccc(-c2nn(-c3cccc(Cl)c3)cc2/C=C2\C(=N)N(c3ccccc3)N=C2N)cc1 = -12.8

Would you mind listing growth for each of the following compounds?
1. O=C1C(Cl)=C(N/N=c2/[nH][nH]/c(=N/NC3=C(Cl)C(=O)c4ccccc4C3=O)c3ccccc23)C(=O)c2ccccc21
2. O=C(Nc1ccc(Oc2ccc(NC(=O)Nc3ccccc3Cl)cc2)cc1)Nc1ccccc1Cl
3. CCCOC(=O)C1c2cc3c(cc2CC(C)C1C(=O)OCCC)OCO3 (stereo unspecified)
4. Nc1nc(N)c2cc(CNc3ccc(Cl)c(Cl)c3)ccc2n1
5. CSCCC1NC(=O)C(C(C)=Nc2ccccc2)=C1O (stereo unspecified)
6. Cc1ccc(Nc2nc(NCCO)c3ccccc3n2)cc1C

47.3
62.8
122
23.7
119
7

// for each compound in input: emit growth
1. CCOc1cccc(/C=N/NC(=O)c2ccc(Nc3ccnc(C(F)(F)F)c3)cc2)c1O
2. CCN(C(=O)Nc1cccc2ccccc12)c1ccccc1
3. Cc1nc2n[nH]c(N)c2nc1C
4. CC(=O)[C@@]1(O)[C@H](C)C[C@H]2[C@@H]3C=C(C)C4=Cc5c(cnn5-c5ccccc5)C[C@]4(C)[C@H]3[C@@H](O)C[C@@]21C
5. Cc1nc2c(-c3cnc(N)nc3)nc(N3CCOCC3)nc2n1C(C)C
6. O=[N+]([O-])c1ccccc1CN1CCCCC1
7. O=[N+]([O-])c1cccc(N=C(Nc2cccc([N+](=O)[O-])c2)c2ccccc2)c1

1: 0.3; 2: 93.5; 3: 103; 4: -21.8; 5: -42.2; 6: 104; 7: 87.1

# per-item lookup of growth; items listed below
1. COc1ccc2[nH]cc(C(c3ccc(Cl)cc3)N3CCCC3)c2c1 (stereo unspecified)
2. COc1ccc(CCN2COc3c([C@@H](C)CCC=C(C)C)ccc(C)c3C2)cc1OC

[98.2, 80.5]

State its growth: O=C(O)c1cn(-c2ccccc2)nc1-c1ccc(O)cc1
101

====

test system: KM12 colon; assay: NCI-60 one-dose screen, 48 h (100 = growth as untreated, 0 = no growth, -100 = all killed); conditions: 10 µM unless noted
The panel holds about 83,000 compounds, 20% with a hit somewhere; the sample as a whole holds those more often.
Criterion: growth meeting or surpassing 50%. Met: Y. Not met: N.

Consider the worked cases shown below.
COc1cc(C)cc2oc3oc(=O)c(-c4csc(-c5cc6ccccc6oc5=O)n4)cc3c(=O)c12 = Y
Clc1ccc(Nc2ncnc3c2sc2ncccc23)cc1 = Y

# check: growth of CN1CCN(Cc2ccc(NC(=O)c3cncc(C#Cc4ccc(N)nc4)c3)cc2C(F)(F)F)CC1 is greater than or equal to 50%
N

Is growth for COc1ccc(CCN2COc3c([C@@H](C)CCC=C(C)C)ccc(C)c3C2)cc1OC at or above 50%?
Y

Reported growth at or above 50%? Cc1n(Cc2ccc3ccccc3n2)cc[n+]1Cc1ccc2ccccc2c1
N

====

test system: LOX IMVI melanoma; test: NCI-60 one-dose screen, 48 h (100 = growth as untreated, 0 = no growth, -100 = all killed); conditions: 10 µM unless noted
The panel holds about 83,000 compounds, 20% with a hit somewhere; the sample as a whole holds those more often. Active and inactive are the calls of the source. The calls were made as follows: active = growth percent below 10; inactive = the rest.
assayMetric: growth

Consider the worked cases shown below.
CSCCC1NC(=O)C(C(C)=Nc2ccccc2)=C1O (stereo unspecified) = 105% (inactive)
CCCCCCCCCCC(C(O)c1ccccc1)N1CCCCC1 (stereo unspecified) = -30.5% (active)
CCCCCCCCCCCCCCCCOc1ccc(S(=O)(=O)N(C)C)cc1[N+](=O)[O-] = 120% (inactive)
COCCCNCC(=O)Nc1c(C)cccc1C = 101% (inactive)
CCCCNCCC(O)c1cc2ccc(C(F)(F)F)cc2c2cc(C(F)(F)F)ccc12 (stereo unspecified) = -71.2% (active)

Give the value of growth reported for the following: CN=C1C=C/C(=N/N=c2/ccn(O)cc2C)C=C1C
95.4% (inactive)

====

Tested on: SF-268 CNS
Assay: NCI-60 one-dose screen, 48 h
Conditions: 10 µM unless noted
Protocol: Cells are grown in 96 well plates and exposed to the test compound for 48 hours. Compounds are tested at a single concentration, which is 10^-5 M for most compounds. The reported endpoint is percent growth (GI% or GIPRCNT), where numbers from 0 - 100% represent growth inhibition, and numbers from -100% - 0 represent cell death. For example, a value of 40 represents 60% growth inhibition. A value of 0 means no net growth occurred over the course of the experiment. […]
Compounds without any hit were thinned out: in the full panel of roughly 83,000, 20% have a hit. The source made the active and inactive calls. The calls were made as follows: active = growth percent below 10; inactive = the rest.
Select the matching outcome among true (1) for active, false (0) for inactive

Below, 8 compounds whose answers are already recorded.
CCCCCCCCCCCCCCCCCC1=NC(C)(C)CN1C(C)(C)CO = true (1)
CCCCNCCC(O)c1cc2ccc(C(F)(F)F)cc2c2cc(C(F)(F)F)ccc12 (stereo not given) = true (1)
CC1=NC(c2ccc(Cl)cc2)C2=C(N1)/C(=C/c1ccc(Cl)cc1)CCC2 (stereo not given) = false (0)
F = false (0)
O=S(=O)(NCC[C@@H]1C[C@H]1c1ccc2ccccc2c1)c1ccc(C(F)(F)F)cc1 = false (0)
COc1cc(-c2n/c(=C\c3c(O)[nH]c4cc(Cl)ccc34)cc3c2=Nc2ccccc2-3)cc(OC)c1OC = false (0)
Cc1nc2c(-c3cnc(N)nc3)nc(N3CCOCC3)nc2n1C(C)C = true (1)
C#CCNC(=S)N/N=C(\C)c1ccccn1 = false (0)

Hi team, can someone confirm the assay call for CCN(CC)CCCC(C)N/C(c1cccc(OC)c1)=c1\c(=O)[nH]n(-c2c3ccccc3nc3ccccc23)c(=O)\c1=C(/NC(C)CCCN(CC)CC)c1cccc(OC)c1 (stereo not given) ?
true (1)

Lab log entry: Cc1ccc(Nc2nc(NCCO)c3ccccc3n2)cc1C — outcome as called in the assay?
false (0)

====

system: RXF 393 renal; test: NCI-60 one-dose screen, 48 h (100 = growth as untreated, 0 = no growth, -100 = all killed); conditions: 10 µM unless noted
Compounds without any hit were thinned out: in the full panel of roughly 83,000, 20% have a hit.
assayMetric: growth (%)
Give bare numbers, in %.

Below are worked cases with known answers.
COc1ccc(/C=c2\c(=O)n(-c3ccccc3)c3nn4c(=O)c(=O)[nH]nc4n23)cc1 = 123
Cc1nc2ccc(Nc3nc(Cl)nc(N4CCOCC4)n3)cc2n1Cc1ccccc1 = 65.1
CC(C)N=C1CCCC1C(=S)SSC(=S)C1CCCC1=NC(C)C (stereo not given) = 78.3
CC(CN1CCN(CCOCCO)CC1)CN1c2ccccc2Sc2ccc(Cl)cc21 (stereo not given) = 56.8

Below are some compounds; for each one, tell me its growth.
1. CC1C2CCC(C2)C1COCCOCCO (stereo not given)
2. Cc1ccc(N2C3c4ccccc4N(S(=O)(=O)c4ccc(C)cc4)C2c2ccccc2N3S(=O)(=O)c2ccc(C)cc2)cc1

1: 116; 2: 121

====

test system: UO-31 renal; assay: NCI-60 one-dose screen, 48 h; settings: 10 µM unless noted
This is part of a sample that, as a whole, favours compounds with a hit. Of some 83,000 tested, about 20% had one in any assay. Active and inactive are the calls of the source. Rule for the calls: active = growth percent below 10; inactive = the rest.
Output constraint: value belongs to active, inactive

Answered cases to consult:
O=[N+]([O-])c1cccc(N=C(Nc2cccc([N+](=O)[O-])c2)c2ccccc2)c1 = inactive
CCOC(=O)c1ccc(NC(=O)NC2=NCCS2)cc1 = inactive
CCCCCCCCCCCCCCCCS(=O)(=O)Nc1cc(C(=O)NN)cc(C(=O)NN)c1 = inactive
C=CCOc1c(Br)cc(Br)cc1Br = inactive
O=c1cc(N2CCOCC2)oc2c(-c3ccc4c(c3)OCCO4)csc12 = active

Could you now consider this next compound?
What outcome does the record of this test show for COc1ccc(C2=Nn3c(nnc3-c3ccc(Cl)cc3N)SC2)cc1 ?
inactive

====

test system: SK-MEL-5 melanoma; experiment: NCI-60 one-dose screen, 48 h; settings: 10 µM unless noted
Compounds without any hit were thinned out: in the full panel of roughly 83,000, 20% have a hit. The source made the active and inactive calls. Rule for the calls: active = growth percent below 10; inactive = the rest.
Mark one answer only. Choices: active, inactive

Just curious, what result did Nc1c(C(=O)c2ccc(Br)cc2)sc2nc3c(cc12)CCCC3 get here?
inactive

Returns: the outcome recorded for O=c1cc(N2CCOCC2)oc2c(-c3ccc4c(c3)OCCO4)csc12 in this assay.
active

Per the records of this test, what outcome belongs to CCCCCCCCCCCCCC[N+](C)(C)CCCCCCCCCCCCCC ?
inactive

Please state the recorded outcome for this compound: CCn1c(CN2CCN(Cc3ccccc3)CC2)nc2cc(NC(=O)c3cccs3)ccc21
active

Hi team, can someone confirm the assay call for COc1ccc2[nH]cc(/C=C3\C(=O)Nc4ccccc43)c2c1 ?
inactive

Fill in: this test's call for NS(=O)(=O)c1ccc(N2N=C(c3cccs3)CC2c2ccccc2O)cc1 (configuration not stated) is ___
active

Outcome logged for CCOc1c(C#N)c2c(N)ncnc2n1C1OC(CO)C(O)C1O (configuration not stated) in this assay:
inactive

How was COc1ccc(Nc2ncnc3c2sc2nc(C)cc(C)c23)cc1 classified in this test?
inactive

Please let me know the test result on file for O=C1OCC2=C1C(c1ccc(Cl)c(Cl)c1)c1cc3c(cc1N2CCO)CCC3 (configuration not stated) .
inactive

Assay result, entry Cc1n(Cc2ccc3ccccc3n2)cc[n+]1Cc1ccc2ccccc2c1 — outcome?
active

Dear all, I need the recorded test outcome for O=C(NC1CC1)c1ccc(-c2nc3ccc4[nH]ncc4c3c3c2CCCC3)cc1 , thank you.
inactive

For this compound, state the assay outcome: C=CCn1c(SCC(=O)Nc2ccc(/C(C)=N\O)cc2)nnc1-c1cc(-c2ccccc2)nc2ccccc12
inactive

Can you look up the reported call for COc1ccc(/C=C2\CCCC3=C2N=C2SC(C)=NN2C3c2ccc(OC)c(OC)c2)cc1OC (configuration not stated) for me?
inactive

// return assay outcome for c1ccc(C(Nc2ccccn2)(c2ccccc2)c2ccccc2)cc1
inactive

Per the records of this test, what outcome belongs to COc1ccc(Br)c2ccccc12 ?
inactive

Would you mind telling me which call this test gave CCN(CC)c1ccc2nc3c4ccccc4c(=O)cc-3n(-c3ccccc3)c2c1 ?
active

In this assay, the call recorded for [O-]/[N+](=C\c1ccccc1)CC1(O)CCCCC1 was what?
inactive

Hi team, can someone confirm the assay call for O=C1OCC2=C1C(c1cccc(Br)c1)c1cc3c(cc1N2CCO)OCCO3 (configuration not stated) ?
active

Per the records of this test, what outcome belongs to COc1cccc2nc(Nc3cccc(NC(=O)c4cc(N5CCOCC5)cc(C(F)(F)F)c4)c3)ccc12 ?
inactive
